Target: 72 kDa type IV collagenase (Homo sapiens)
Sequence (P08253 whole entry): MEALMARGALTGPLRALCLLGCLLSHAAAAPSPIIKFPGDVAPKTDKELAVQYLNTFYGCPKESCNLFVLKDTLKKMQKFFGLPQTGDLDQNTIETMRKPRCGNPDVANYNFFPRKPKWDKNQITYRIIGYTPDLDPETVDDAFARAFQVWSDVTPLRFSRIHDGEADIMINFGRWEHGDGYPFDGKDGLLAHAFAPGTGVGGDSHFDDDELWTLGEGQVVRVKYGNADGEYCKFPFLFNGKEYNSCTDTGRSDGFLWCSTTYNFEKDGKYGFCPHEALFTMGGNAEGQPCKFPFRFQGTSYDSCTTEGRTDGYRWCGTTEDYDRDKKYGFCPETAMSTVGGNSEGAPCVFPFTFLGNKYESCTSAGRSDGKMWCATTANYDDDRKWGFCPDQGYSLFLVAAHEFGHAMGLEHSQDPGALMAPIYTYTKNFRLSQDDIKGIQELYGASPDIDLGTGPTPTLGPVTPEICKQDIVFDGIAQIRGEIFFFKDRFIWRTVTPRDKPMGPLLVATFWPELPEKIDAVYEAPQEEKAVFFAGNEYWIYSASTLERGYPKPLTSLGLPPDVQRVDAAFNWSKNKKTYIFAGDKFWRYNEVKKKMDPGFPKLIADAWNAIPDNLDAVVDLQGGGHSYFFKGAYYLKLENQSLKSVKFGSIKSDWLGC
pKi: −log10 of the molar value.
Attribute: pKi

molecule: Cc1cc(COc2ccc(C(=O)NCCc3n[nH]c(=S)[nH]3)cc2)c2ccccc2n1
assay-system: 72 kDa type IV collagenase (Homo sapiens)
pKi: < 5.48
//
molecule: CC(=O)N1C[C@H](c2n[nH]c(=S)[nH]2)[C@H](NC(=O)c2ccc(OCc3cc(C)nc4ccccc34)cc2)C1 (relative stereo)
assay-system: 72 kDa type IV collagenase (Homo sapiens)
pKi: < 5.48
//
molecule: Cc1cc(COc2ccc(C(=O)NC3(Cc4n[nH]c(=S)[nH]4)CCOCC3)cc2)c2ccccc2n1
assay-system: 72 kDa type IV collagenase (Homo sapiens)
pKi: 5.80

---

Target: Disintegrin and metalloproteinase domain-containing protein 17 (Sus scrofa, UniProt O77636)
Sequence (O77636 whole entry, the tested form may be a part): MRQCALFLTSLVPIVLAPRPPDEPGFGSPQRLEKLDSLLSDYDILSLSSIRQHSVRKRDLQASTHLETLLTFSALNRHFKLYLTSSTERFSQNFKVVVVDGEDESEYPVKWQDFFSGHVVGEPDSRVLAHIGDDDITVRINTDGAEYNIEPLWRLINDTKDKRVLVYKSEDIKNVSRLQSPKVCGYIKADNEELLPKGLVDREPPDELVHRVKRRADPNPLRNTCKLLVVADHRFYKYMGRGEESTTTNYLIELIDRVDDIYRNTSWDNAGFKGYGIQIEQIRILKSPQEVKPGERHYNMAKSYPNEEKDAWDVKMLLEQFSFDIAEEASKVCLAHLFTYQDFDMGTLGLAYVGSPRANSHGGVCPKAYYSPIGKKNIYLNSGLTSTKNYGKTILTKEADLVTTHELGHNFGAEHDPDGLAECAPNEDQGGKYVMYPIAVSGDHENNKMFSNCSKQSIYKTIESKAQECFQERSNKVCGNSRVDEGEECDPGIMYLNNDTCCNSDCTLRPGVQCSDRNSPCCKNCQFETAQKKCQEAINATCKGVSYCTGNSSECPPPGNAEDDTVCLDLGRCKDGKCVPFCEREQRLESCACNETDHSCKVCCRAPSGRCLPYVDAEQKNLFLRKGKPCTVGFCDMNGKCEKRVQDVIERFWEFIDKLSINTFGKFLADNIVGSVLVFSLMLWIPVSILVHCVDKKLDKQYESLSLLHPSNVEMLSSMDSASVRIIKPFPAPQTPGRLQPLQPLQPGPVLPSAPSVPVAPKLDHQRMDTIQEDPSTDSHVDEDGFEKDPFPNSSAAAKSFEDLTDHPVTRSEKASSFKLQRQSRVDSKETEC
pIC50: −log10 of the molar value.
Attribute: pIC50

compound: CCCN1CC[C@H](c2n[nH]c(=S)[nH]2)[C@H](NC(=O)c2ccc(OCc3cc(C)nc4ccccc34)cc2)C1 (relative stereo)
pIC50: 7.82
--
compound: CCCN1C[C@H](c2n[nH]c(=S)[nH]2)[C@H](NC(=O)c2ccc(OCc3cc(C)nc4ccccc34)cc2)C1 (relative stereo)
pIC50: 8.00
--
compound: Cc1cc(COc2ccc(C(=O)N[C@@H]3CNCC[C@@H]3c3n[nH]c(=S)[nH]3)cc2)c2ccccc2n1 (relative stereo)
pIC50: 8.03
